# target or system: eNOS promoter
# protocol details: Activation of eNOS transcription (eNOS promoter-luciferase reporter gene assay)
# Format: cell-based
# measurement setup: human endothelial cell line stably transfected with eNOS promoter-luciferase construct; 18 h incubation; EC50 determined graphically from TIR vs concentration; read-out: eNOS transcription induction ratios EC50
experimental endpoint: EC50 (nM)

Below, 3 compounds whose answers are already recorded.
• O=C(N[C@@H]1C[C@H]1c1ccccc1)c1cnc2c(c1)CCCC2 (racemic) [Example 10] = 5100
• Cc1nc(C)c(C(=O)N[C@@H]2C[C@H]2c2ccccc2)o1 (racemic) [Example 1] = 18000
• O=C(N[C@@H]1C[C@H]1c1ccccc1)c1ccc2[nH]ccc2c1 (racemic) [Example 30] = 100

I. CN(C)c1cccc(C(=O)NC2CC2c2ccccc2)c1 (racemic) [Example 32]
II. O=C(NC1CC1c1ccccc1)c1ccc(F)cc1F (racemic) [Example 36]
Kindly compare I with II and tell me which has the lower EC50 figure. Your choice should be expressed through its label. II

====

# target or system: eNOS promoter
# protocol details: Activation of eNOS transcription (eNOS promoter-luciferase reporter gene assay)
# Type: cell-based
# measurement setup: human endothelial cell line stably transfected with eNOS promoter-luciferase construct; 18 h incubation; EC50 determined graphically from TIR vs concentration; read-out: eNOS transcription induction ratios EC50
experimental endpoint: EC50 (µM)

The cases that follow already have their EC50 on record.
* Cc1c(C(=O)N[C@@H]2C[C@H]2c2ccccc2)cnn1-c1ccccc1 (racemic) [Example 20] | 0.11
* O=C(N[C@@H]1C[C@H]1c1ccccc1)c1cnn(-c2ccccc2)c1C(F)(F)F (racemic) [Example 21] | 0.24

I. O=C(N[C@@H]1C[C@H]1c1ccccc1)c1ccc2cc[nH]c2c1 (racemic) [Example 29]
II. O=C(N[C@@H]1C[C@H]1c1ccccc1)c1ccc(F)cc1 (relative stereo) [Example 41]
Which record shows the lower EC50: the first, I , or the second, II ? Your answer should be the label attached to the chosen record. I
(I: 0.1 µM, II: 0.18 µM)

P. CC(C)S(=O)(=O)c1csc(C(=O)N[C@@H]2C[C@H]2c2ccccc2)c1Cl (racemic) [Example 19]
Q. Cc1cc(C(=O)N[C@@H]2C[C@H]2c2ccccc2)c(C)n1Cc1ccncc1 (racemic) [Example 22]
Task for the reader: decide whether P or Q has the larger EC50. Give the label under which the chosen entry appears. Q

P. Cc1ncc(C(=O)N[C@@H]2C[C@H]2c2ccccc2)s1 (racemic) [Example 12]
Q. O=C(NC1CC1c1ccccc1)c1cccc2[nH]ccc12 (racemic) [Example 31]
Could you tell me which of these two has the smaller EC50 figure? First: P Second: Q Answer by stating the label of the chosen item. Q
(Q: 0.47 µM, P: 10 µM)
